test system: SEM cells; experiment: cell viability relative to DMSO control; higher = less cytotoxic; conditions: HPLM + 10% dialyzed FBS; 48 h; 46.1 µM
compounds and their reported cell viability
Hi! Could you send only the number? It should be in %, unit omitted.

// worked examples, cell viability included
Cc1cccc(/C=N/Nc2cc(N3CCOCC3)nc(OCCc3ccccn3)n2)c1 :: 31.8
O=C(OCC#CCSc1nnc(-c2cccc3ccccc23)o1)c1cc2ccccc2s1 :: 113
CC(=O)[C@]1(O)Cc2c(O)c3c(c(O)c2[C@@H](O[C@H]2C[C@H](N)[C@H](O)[C@H](C)O2)C1)C(=O)c1ccccc1C3=O :: 6.23

Qu. Notebook: pull reported cell viability for SEM cells, entry "CCOC(=O)/C=C/[C@H](C[C@@H]1CCNC1=O)NC(=O)[C@@H](CC(=O)[C@@H](NC(=O)c1cc(C)on1)C(C)C)Cc1ccc(F)cc1"
Ans. 105

Qu. Notebook: pull reported cell viability for SEM cells, entry Cc1noc(-c2ccc(CSCCC(=O)O)cc2)c1NC(=O)OC(C)c1ccccc1Cl (configuration not stated)
Ans. 95.6

Qu. Notebook: pull reported cell viability for SEM cells, entry "N#C/C(C(=O)c1ccc(Cl)cc1Cl)=C1/NC(=O)c2ccc(Cl)cc2N1"
Ans. 111

Qu. Notebook: pull reported cell viability for SEM cells, entry "COc1ccc2cc1Oc1ccc(cc1)C[C@H]1c3cc(c(OC)cc3CCN1C)Oc1c(OC)c(OC)cc3c1[C@H](C2)N(C)CC3"
Ans. 86.8
